Attribution: PubChem BioAssay (NCI)

What TGI was measured for each of the following?
# Tested on: SK-MEL-28 melanoma
# PROTOCOL DESCRIPTION: NCI tumour cell line growth inhibition, 48 h

Challenge: // returns reported TGI for input `C/C(CC(=O)Nc1cc(Cl)c(Cl)cc1Cl)=N\NS(=O)(=O)c1ccc(C)cc1`
Response given: > 100 µM

Challenge: // returns reported TGI for input COC(=O)C([O][Ge]([CH3])([CH3])[CH3])c1ccccc1 (configuration not stated)
Response given: > 100 µM

Challenge: // returns reported TGI for input COc1cccc(C2N3CCCCC3[C@@H]3c4[nH]c5ccccc5c4CCN23)c1OC (some centres not stated)
Response given: 30.4 µM

Challenge: // returns reported TGI for input `COc1ccc(C2=C(N)c3cc(OC)ccc3C2=O)cc1`
Response given: > 100 µM

Challenge: // returns reported TGI for input O=C1NC(=Nc2ccccc2Cl)SC1C(=O)Nc1ccc([N+](=O)[O-])cc1[N+](=O)[O-] (configuration not stated)
Response given: > 100 µM

Challenge: // returns reported TGI for input `COc1nc2ncc([C@@H](O)[C@H](O)CO)nc2c(=O)[nH]1`
Response given: > 100 µM

Challenge: // returns reported TGI for input CC1CN=C(N(C(=O)Nc2ccccc2)C2CCCCC2)S1 (configuration not stated)
Response given: 28.2 µM

Challenge: // returns reported TGI for input `Cc1cc(S(=O)(=O)Nc2n[nH]c(N)n2)c(S)cc1Cl`
Response given: > 10 µM

Challenge: // returns reported TGI for input CC1CC2OC(=N)C1(C#N)C2(C#N)C#N (configuration not stated)
Response given: > 100 µM

Challenge: // returns reported TGI for input CC(C)=CCCC1(C)C=Cc2c(ccc3c2[nH]c2cc(O)c(C)cc23)O1 (configuration not stated)
Response given: > 2.5 µM

Challenge: // returns reported TGI for input CC1=NNC(N)=N/C1=C\C(Sc1ccc(Cl)cc1)c1ccc(Cl)cc1Cl (configuration not stated)
Response given: 55.7 µM

Challenge: // returns reported TGI for input COc1ccc(C2CCc3c(cnc4nc(N)nc(N)c34)C2)cc1 (configuration not stated)
Response given: > 100 µM

Challenge: // returns reported TGI for input COc1ccc(C2C3=C(COC3=O)N(CCO)c3cc4c(cc32)CCC4)cc1OC (configuration not stated)
Response given: > 50 µM

Challenge: // returns reported TGI for input CCC(C)Cn1c(C)nc2c1C(=O)c1ccccc1C2=O (configuration not stated)
Response given: > 100 µM

Challenge: // returns reported TGI for input `Nc1cc2ccncc2c2ccccc12`
Response given: 33.6 µM

Challenge: // returns reported TGI for input `COc1cc(C)c(S(=O)(=O)N(CCCN)OCCCN)c(C)c1C`
Response given: > 100 µM

Challenge: // returns reported TGI for input `Cc1cnc2cc(Cl)ccc2c1SCC(=O)O`
Response given: > 100 µM
